tested_target: human RORγt ligand binding domain (RORγt LBD) (Homo sapiens (Human))
Sequence (P51449 other isoform, or with tags, fused parts or gaps): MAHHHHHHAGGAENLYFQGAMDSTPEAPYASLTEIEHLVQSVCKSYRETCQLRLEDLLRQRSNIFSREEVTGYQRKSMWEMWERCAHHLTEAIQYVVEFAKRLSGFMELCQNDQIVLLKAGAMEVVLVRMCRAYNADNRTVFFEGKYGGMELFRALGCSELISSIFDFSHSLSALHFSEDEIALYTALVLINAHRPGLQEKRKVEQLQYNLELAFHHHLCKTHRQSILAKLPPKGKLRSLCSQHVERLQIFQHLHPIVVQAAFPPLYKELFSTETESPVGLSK
measurement_notes: RORγt ThermoFluor assay (thermal shift binding affinity)
condition_info: estimated from thermal shift
Description: This approach is applicable to a wide variety of systems, and rigorous in theoretical interpretation through quantitation of equilibrium binding constants (KD). […] Bar-coded assay plates are robotically loaded onto a thermostatically controlled PCR-type thermal block and then heated at a typical ramp-rate of 1° C./min for all experiments. […] Images were collected at each temperature, and the sum of the pixel intensity in a given area of the assay plate was recorded versus temperature. […]
// boundary case: Kd equal to 0.01 µM maps to 0; strictly smaller maps to 1

1. COc1nc2c(C)cc(C(O)(c3ccc(Cl)cc3)c3cncn3C)cc2c(Cl)c1Cc1ccc(-n2cccn2)cc1 (stereo not shown) [Example 28A]; 0
2. Cn1cncc1C(O)(c1ccc(C(F)(F)F)nc1)c1ccc2nc(C#N)c(Cc3ccc(-n4cccn4)cc3)cc2c1 (single isomer, unassigned) [Example 70C]; 0
3. COc1ccc(C(O)(c2cccnc2)c2ccc3nc(Cl)c(Cc4ccc(-n5cccn5)cc4)c(Cl)c3c2)cc1 (stereo not shown) [Example 47]; 0
4. CON(C)c1nc2ccc(C(O)(c3ccc(C(F)(F)F)nc3)c3cncn3C)cc2c(Cl)c1Cc1ccc(-n2cccn2)cc1 (single isomer, unassigned) [Example 67C]; 0
5. Cn1cncc1C(O)(c1ccc(C(F)(F)F)nc1)c1ccc2nc(N3CCC3)c(Cc3ccc(C(F)(F)F)cc3)c(Cl)c2c1 (single isomer, unassigned) [Example 92C]; 1
6. CCOc1nc2ccc(C(O)(c3cncs3)c3cncn3C)cc2cc1Cc1ccc(OC)cc1 (stereo not shown) [Example 24]; 0
7. COc1nc2ccc(C(O)(c3ccccc3)C3CCN(C(C)=O)CC3)cc2c(Cl)c1Cc1ccc(-n2cccn2)cc1 (racemic) [Example 83A]; 0
8. CCc1nc2ccc(C(O)(c3cnnn3C)C3CN(C(C)=O)C3)cc2c(Cl)c1Cc1ccc(C(F)(F)F)cc1 (single isomer, unassigned) [Example 90B]; 1
9. COc1nc2c(C)cc(C(O)(c3ccc(Cl)cc3)c3cncn3C)cc2c(Cl)c1Cc1ccc(-n2cccn2)cc1 (single isomer, unassigned) [Example 28C]; 1
10. OC(c1cccnc1)(c1cccc(Cl)c1)c1ccc2nc(Cl)c(Cc3ccc(-n4cccn4)cc3)c(Cl)c2c1 (stereo not shown) [Example 5]; 0
11. COc1nc2ccc(C(O)(c3ccc(C(F)(F)F)nc3)c3cncn3C)cc2c(Cl)c1Cc1cc2ccccc2s1 (single isomer, unassigned) [Example 37C]; 1
12. COc1nc2ccc(C(O)(c3ccc(Cl)cc3)c3cncn3C)cc2c(Cl)c1Cc1cc2ccccc2s1 (stereo not shown) [Example 36A]; 0
13. COc1nc2ccc(C(N)(c3ccc(C)nc3C)c3cnnn3C)cc2c(Cl)c1Cc1ccc(C(F)(F)F)cc1 (single isomer, unassigned) [Example 87C]; 1
